Quick reference: EC50 of the listed items.
- tested-target: KIF5B-RET mutant form V804M in HEK293 cells (Homo sapiens, UniProt P07949, V804M)
- Construct: the other entry of the earlier key: KIF5B (P33176, Kinesin-1 heavy chain)
- Sequence (P07949 713-1063 V804M limits assumed): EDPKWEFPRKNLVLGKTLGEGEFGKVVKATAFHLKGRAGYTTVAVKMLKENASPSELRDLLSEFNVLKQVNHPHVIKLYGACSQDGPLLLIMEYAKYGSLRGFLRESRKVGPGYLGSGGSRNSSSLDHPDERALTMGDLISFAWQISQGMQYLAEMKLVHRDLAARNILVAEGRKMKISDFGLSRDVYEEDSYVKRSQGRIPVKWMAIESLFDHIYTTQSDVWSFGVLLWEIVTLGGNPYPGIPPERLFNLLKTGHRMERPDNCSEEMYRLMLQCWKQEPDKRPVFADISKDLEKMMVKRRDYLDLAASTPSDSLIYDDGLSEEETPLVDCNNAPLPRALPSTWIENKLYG
- procedure-details: RET cell assay (In-Cell Western, phospho-RET Y1062), V804M
- protocol-conditions: HEK293, doxycycline-induced KIF5B-RET V804M, 1 hr compound treatment; read-out: EC50, inhibition of intracellular autophosphorylation of RET at tyrosine 1062, V804M cells
measurement-name: EC50

1. CC(C(=O)Nc1cc(-c2ccc(Cl)cc2Cl)no1)c1ccc(-c2nn(C(C)C)c(N)c2C(N)=O)cc1 (single isomer, unassigned; isomer 1) :: < 100 nM
2. CC(C(=O)Nc1cc(C(C)(C)CC(F)(F)F)on1)c1ccc(-c2nn(C(C)C)c(N)c2C(N)=O)nc1 (single isomer, unassigned; isomer 2) :: < 100 nM
3. CC(C(=O)Nc1cc(C(C)(C)C(F)(F)F)no1)c1ccc(-c2nn(C(C)C)c(N)c2C(N)=O)cc1 (single isomer, unassigned; isomer 1) :: < 100 nM

====

- tested-target: V804M mutant RET kinase (N-terminal GST tagged recombinant human V804M mutant RET cytoplasmic domain, aa 658-end) (Homo sapiens, UniProt P07949, V804M)
- Construct: human V804M mutant RET cytoplasmic domain (aa 658-end); GST (N)
- Sequence (P07949 658-1114 V804M limits assumed): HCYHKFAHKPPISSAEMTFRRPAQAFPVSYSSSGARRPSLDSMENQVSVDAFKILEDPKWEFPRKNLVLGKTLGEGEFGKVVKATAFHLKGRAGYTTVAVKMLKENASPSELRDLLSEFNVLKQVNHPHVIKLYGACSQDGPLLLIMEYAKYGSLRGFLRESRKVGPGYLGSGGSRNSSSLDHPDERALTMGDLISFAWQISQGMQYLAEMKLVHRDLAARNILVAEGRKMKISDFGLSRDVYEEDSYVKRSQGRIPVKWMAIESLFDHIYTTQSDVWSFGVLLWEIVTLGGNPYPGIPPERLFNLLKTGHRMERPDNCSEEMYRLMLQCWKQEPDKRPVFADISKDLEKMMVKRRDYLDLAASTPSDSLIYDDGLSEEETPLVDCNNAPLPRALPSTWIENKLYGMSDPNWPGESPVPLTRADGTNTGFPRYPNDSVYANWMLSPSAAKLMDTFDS
- procedure-details: RET enzyme assay (HTRF KinEASE TK), V804M
- protocol-conditions: 1 mM ATP, 40 min incubation at 22° C.
pIC50: −log10 of the molar value.
measurement-name: pIC50

1) CC(C(=O)Nc1cc(C2CC(C)(C)C2)no1)c1ccc(-c2nn(C(C)C)c(N)c2C(N)=O)cc1 (single isomer, unassigned; isomer 1) :: > 7.00
2) CCC(C)(C)c1cc(NC(=O)C(C)c2ccc(-c3nn(C(C)C)c(N)c3C(N)=O)nc2)no1 (single isomer, unassigned; isomer 2) :: > 7.00
3) CC(C(=O)Nc1cc(C(C)(C)C(F)(F)F)on1)c1ccc(-c2nn(C(C)C)c(N)c2C(N)=O)cc1 (single isomer, unassigned; isomer 1) :: > 7.00
4) CC(C(=O)Nc1cc(C(C)(C)C(F)(F)F)no1)c1ccc(-c2nn(C(C)C)c(N)c2C(N)=O)cc1 (single isomer, unassigned; isomer 1) :: > 7.00
5) CC(C(=O)Nc1cc(C(C)(C)C(C)(F)F)on1)c1ccc(-c2nn(C(C)C)c(N)c2C(N)=O)cc1 (single isomer, unassigned; isomer 2) :: > 7.00
6) CC(C(=O)Nc1cc(C(C)(C)C(C)(F)F)on1)c1ccc(-c2nn(C(C)C)c(N)c2C(N)=O)nc1 (single isomer, unassigned; isomer 2) :: > 7.00
